# Tested on: Cunninghamella
# Test name: Antifungal activity against Cunninghamella spp after 24 hrs
# Format: functional
Measured metric: MIC50 (µg/mL)

Molecule	Target system	Measured metric	Value modifier	Data value
CC[C@H](C)C[C@H](C)CCCCCCCCC(=O)N[C@H]1C[C@@H](O)[C@@H](NCCN)NC(=O)[C@@H]2[C@@H](O)CCN2C(=O)[C@H]([C@H](O)CCN)NC(=O)[C@H]([C@H](O)[C@@H](O)c2ccc(O)cc2)NC(=O)[C@@H]2C[C@@H](O)CN2C(=O)[C@H]([C@@H](C)O)NC1=O	Cunninghamella	MIC50	=	256
CC[C@@H]([C@H](C)O)n1ncn(-c2ccc(N3CCN(c4ccc(OC[C@@H]5CO[C@@](Cn6cncn6)(c6ccc(F)cc6F)C5)cc4)CC3)cc2)c1=O	Cunninghamella	MIC50	=	0.5
C[C@@H]1[C@H](O)[C@@H](C)/C=C/C=C/C=C/C=C/C=C/C=C/C=C/[C@H](O[C@@H]2O[C@H](C)[C@@H](O)[C@H](N)[C@@H]2O)C[C@@H]2O[C@](O)(C[C@@H](O)C[C@@H](O)[C@H](O)CC[C@@H](O)C[C@@H](O)CC(=O)O[C@H]1C)C[C@H](O)[C@H]2C(=O)O	Cunninghamella	MIC50	=	2
CCC(C)n1ncn(-c2ccc(N3CCN(c4ccc(OCC5COC(Cn6cncn6)(c6ccc(Cl)cc6Cl)O5)cc4)CC3)cc2)c1=O (stereo not given)	Cunninghamella	MIC50	=	1
C[C@@H](c1ncncc1F)[C@](O)(Cn1cncn1)c1ccc(F)cc1F	Cunninghamella	MIC50	>	16

###

# Tested on: Cunninghamella
# Test name: Antifungal activity against Cunninghamella spp after 48 hrs
# Type: functional

Molecule	MIC90
CCC(C)n1ncn(-c2ccc(N3CCN(c4ccc(OCC5COC(Cn6cncn6)(c6ccc(Cl)cc6Cl)O5)cc4)CC3)cc2)c1=O (stereo not drawn)	4 µg/mL
CC[C@H](C)C[C@H](C)CCCCCCCCC(=O)N[C@H]1C[C@@H](O)[C@@H](NCCN)NC(=O)[C@@H]2[C@@H](O)CCN2C(=O)[C@H]([C@H](O)CCN)NC(=O)[C@H]([C@H](O)[C@@H](O)c2ccc(O)cc2)NC(=O)[C@@H]2C[C@@H](O)CN2C(=O)[C@H]([C@@H](C)O)NC1=O	> 256 µg/mL
C[C@@H](c1ncncc1F)[C@](O)(Cn1cncn1)c1ccc(F)cc1F	> 16 µg/mL

###

# Tested on: Mucor
# Test name: Antifungal activity against Mucor spp after 48 hrs
# Format: functional
Measured metric: MIC90 (µg/mL)

Molecule	Measured metric	Unit of measurement	Value modifier	Data value
CCC(C)n1ncn(-c2ccc(N3CCN(c4ccc(OCC5COC(Cn6cncn6)(c6ccc(Cl)cc6Cl)O5)cc4)CC3)cc2)c1=O (configuration not stated)	MIC90	µg/mL	>	16
C[C@@H]1[C@H](O)[C@@H](C)/C=C/C=C/C=C/C=C/C=C/C=C/C=C/[C@H](O[C@@H]2O[C@H](C)[C@@H](O)[C@H](N)[C@@H]2O)C[C@@H]2O[C@](O)(C[C@@H](O)C[C@@H](O)[C@H](O)CC[C@@H](O)C[C@@H](O)CC(=O)O[C@H]1C)C[C@H](O)[C@H]2C(=O)O	MIC90	µg/mL	=	2

###

# Tested on: Mucor
# Test name: Antifungal activity against Mucor spp after 48 hrs
# Assay type: functional

Compound	Target system	MIC90
CC[C@@H]([C@H](C)O)n1ncn(-c2ccc(N3CCN(c4ccc(OC[C@@H]5CO[C@@](Cn6cncn6)(c6ccc(F)cc6F)C5)cc4)CC3)cc2)c1=O [POSACONAZOLE]	Mucor	2 µg/mL
C[C@@H](c1ncncc1F)[C@](O)(Cn1cncn1)c1ccc(F)cc1F [VORICONAZOLE]	Mucor	> 16 µg/mL
CC[C@H](C)C[C@H](C)CCCCCCCCC(=O)N[C@H]1C[C@@H](O)[C@@H](NCCN)NC(=O)[C@@H]2[C@@H](O)CCN2C(=O)[C@H]([C@H](O)CCN)NC(=O)[C@H]([C@H](O)[C@@H](O)c2ccc(O)cc2)NC(=O)[C@@H]2C[C@@H](O)CN2C(=O)[C@H]([C@@H](C)O)NC1=O [CASPOFUNGIN]	Mucor	> 256 µg/mL
